# assayed.target: Histamine H3 receptor (Homo sapiens, UniProt Q9Y5N1)
# Sequence (Q9Y5N1 whole entry): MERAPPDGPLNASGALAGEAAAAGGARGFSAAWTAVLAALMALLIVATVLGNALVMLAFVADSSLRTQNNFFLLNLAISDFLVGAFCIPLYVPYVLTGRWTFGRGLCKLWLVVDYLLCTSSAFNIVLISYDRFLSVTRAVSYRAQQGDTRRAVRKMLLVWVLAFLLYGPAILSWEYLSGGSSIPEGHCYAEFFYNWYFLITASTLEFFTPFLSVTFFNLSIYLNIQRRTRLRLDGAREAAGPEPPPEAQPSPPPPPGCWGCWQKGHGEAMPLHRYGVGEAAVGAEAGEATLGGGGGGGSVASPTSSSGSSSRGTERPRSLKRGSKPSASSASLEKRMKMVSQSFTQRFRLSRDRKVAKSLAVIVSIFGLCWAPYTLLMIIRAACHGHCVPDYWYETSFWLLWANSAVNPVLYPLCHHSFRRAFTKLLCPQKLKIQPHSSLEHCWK
# assay.text: Binding affinity at histamine H3 receptor by hH3-[35S]GTPgamma[S] binding assay
# Assay type: functional
We begin with a simple list: items and their reported Ki.

// known answers, use as guide
smiles.text | Ki
O=C(/C=C/c1ccc(-c2ccccc2)cc1)N1CCC[C@H]1CN1CCCC1 | 0.0037 µM (antagonist)
O=C(NCc1ccc(Cl)c(Cl)c1)N1CCN(C2CCCC2)CC1 | 0.015 µM (antagonist)
NCc1cccc(CNC(=O)N2CCC[C@H]2CN2CCCC2)c1 | 0.078 µM (antagonist)
O=C(/C=C/c1ccc(OC(F)(F)F)cc1)N1CCC[C@H]1CN1CCCC1 | 0.0134 µM (antagonist)
O=C(NCc1ccc(-c2ccccc2)cc1)N1CCC[C@H]1CN1CCCC1 | 0.087 µM (antagonist)
O=C(NCc1ccc(Oc2ccccc2)cc1)N1CCC[C@H]1CN1CCCC1 | 0.034 µM (antagonist)
CC(C)N1CCN(C(=O)N(C)Cc2ccc(-c3ccccc3)cc2)CC1 | 0.037 µM (antagonist)
O=C(NCc1cccc(C(F)(F)F)c1)N1CCC[C@H]1CN1CCCC1 | 0.117 µM (antagonist)

Respond only with Ki recorded for O=C(/C=C/c1ccc(Cl)cc1)N1CCC[C@H]1CN1CCCC1
0.0112 µM (antagonist)

Respond only with Ki recorded for O=C(NCc1ccc(Oc2ccccc2)cc1)N1CCN(C2CCCC2)CC1
0.038 µM (antagonist)

Respond only with Ki recorded for NCc1ccc(CNC(=O)N2CCC[C@H]2CN2CCCC2)cc1
0.109 µM (antagonist)
